Cited source: patent US10954221B2

Target: GLP1R (Homo sapiens, UniProt P43220)
Sequence (P43220 24-463): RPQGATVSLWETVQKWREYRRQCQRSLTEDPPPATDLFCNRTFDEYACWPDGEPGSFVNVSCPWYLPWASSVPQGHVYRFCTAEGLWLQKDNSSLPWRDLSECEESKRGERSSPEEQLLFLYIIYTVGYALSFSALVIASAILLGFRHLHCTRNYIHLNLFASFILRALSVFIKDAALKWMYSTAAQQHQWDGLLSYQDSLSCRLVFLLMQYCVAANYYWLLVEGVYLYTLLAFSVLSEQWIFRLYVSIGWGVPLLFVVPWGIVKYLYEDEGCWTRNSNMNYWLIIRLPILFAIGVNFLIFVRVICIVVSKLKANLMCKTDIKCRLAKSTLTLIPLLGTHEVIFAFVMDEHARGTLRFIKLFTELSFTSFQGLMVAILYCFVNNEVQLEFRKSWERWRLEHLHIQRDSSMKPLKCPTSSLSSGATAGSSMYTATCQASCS
Test: GLP1R cAMP assay (HTRF), HEK293/GLP-1R/CRE/Luc, Clone 4
Below, each of the molecules is paired with its reported EC50 value.

// known answers, use as guide
[[record]]
molecule = "N#Cc1ccc(COc2nc(-c3ccc(Cc4nc5ccc(C(=O)O)cc5n4C[C@@H]4CCO4)c(F)c3)ccc2F)c(F)c1 [Compound 264]"
test_result = "< 15 nM"

[[record]]
molecule = "O=C(O)c1ccc2nc(Cc3ccc(-c4nc(OCc5ccc(Cl)cc5F)ncc4F)c(F)c3)n(C[C@@H]3CCO3)c2c1 [Compound 82]"
test_result = "< 15 nM"

[[record]]
molecule = "O=C(O)c1ccc2nc(Cc3ccc(-c4nc(OCc5ccc(Cl)cc5F)ncc4F)cc3F)n(C[C@@H]3CCO3)c2c1 [Compound 91]"
test_result = "< 15 nM"

[[record]]
molecule = "O=C(O)c1ccc2nc(Cc3ccc(-c4ccc(F)c(OCc5ccc(Cl)cc5F)n4)cc3F)n(C[C@@H]3CCO3)c2c1 [Compound 88]"
test_result = "< 15 nM"

[[record]]
molecule = "O=C(O)c1ccc2nc(CN3CC=C(c4csc(OCc5ccc(C(F)(F)F)cc5)n4)CC3)n(C[C@@H]3CCO3)c2c1 [Compound 256]"
test_result = "15 to 150 nM"


Param item: O=C(O)c1ccc2nc(CN3CC=C(c4scnc4OCc4ccc(Cl)cc4F)CC3)n(C[C@@H]3CCO3)c2c1 [Compound 331] ; param system: GLP1R (Homo sapiens, UniProt P43220); output EC50: < 15 nM

Param item: O=C(O)c1ccc2nc(CN3CC=C(c4cccc(OCc5ccc(Cl)cc5F)n4)CC3)c(Cc3cocn3)n2c1 [Compound 327] ; param system: GLP1R (Homo sapiens, UniProt P43220); output EC50: 15 to 150 nM
